study_target: Poly [ADP-ribose] polymerase 1 (Rattus norvegicus) (UniProt P27008)
Sequence (P27008 whole entry): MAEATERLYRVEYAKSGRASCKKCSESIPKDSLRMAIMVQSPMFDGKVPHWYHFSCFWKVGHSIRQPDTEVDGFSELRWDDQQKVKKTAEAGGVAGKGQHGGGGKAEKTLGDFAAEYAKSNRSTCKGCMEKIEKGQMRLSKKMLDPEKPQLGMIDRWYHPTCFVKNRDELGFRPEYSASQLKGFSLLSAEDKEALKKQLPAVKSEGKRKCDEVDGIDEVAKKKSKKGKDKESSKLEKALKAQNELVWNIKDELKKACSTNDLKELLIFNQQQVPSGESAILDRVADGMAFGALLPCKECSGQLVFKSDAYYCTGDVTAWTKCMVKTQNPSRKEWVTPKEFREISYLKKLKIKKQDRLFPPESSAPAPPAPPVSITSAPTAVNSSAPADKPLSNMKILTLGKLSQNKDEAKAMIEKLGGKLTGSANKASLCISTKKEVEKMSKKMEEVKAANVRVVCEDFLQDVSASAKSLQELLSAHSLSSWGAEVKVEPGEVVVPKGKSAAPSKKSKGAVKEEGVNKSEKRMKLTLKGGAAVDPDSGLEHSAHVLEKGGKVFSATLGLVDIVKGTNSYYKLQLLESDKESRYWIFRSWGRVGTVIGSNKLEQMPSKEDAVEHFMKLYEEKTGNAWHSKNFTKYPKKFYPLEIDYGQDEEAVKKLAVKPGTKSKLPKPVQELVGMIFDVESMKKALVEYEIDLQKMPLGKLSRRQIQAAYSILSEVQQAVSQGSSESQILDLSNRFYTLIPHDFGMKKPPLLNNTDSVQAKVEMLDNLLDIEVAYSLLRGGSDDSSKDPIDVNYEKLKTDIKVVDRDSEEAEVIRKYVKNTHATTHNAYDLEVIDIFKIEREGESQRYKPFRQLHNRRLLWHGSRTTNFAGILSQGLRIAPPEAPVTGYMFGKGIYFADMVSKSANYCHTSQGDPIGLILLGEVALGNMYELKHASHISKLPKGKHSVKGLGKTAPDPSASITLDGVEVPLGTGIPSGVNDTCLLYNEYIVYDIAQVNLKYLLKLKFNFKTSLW
measurement_protocol: Inhibition of PARP1 in rat PC12 cells assessed as NAD+ recovery at 1 uM pre-treated for 1 hr before hydrogen peroxide addition followed by washout and compound treated again for 1 hr relative to control
Type: cell-based
study_conditions: PC-12
quantity_kind: inhibition (%)
Your answer is read as %, so omit the unit and give the number.

Q) Please list inhibition recorded for the compound "CC(C)(C)OC(=O)[C@@H]1CCCN1C(=O)CCC(=O)c1ccc2[nH]c3c4c(c5c(c3c2c1)C(=O)NC5=O)CCC4"
A) 39

Q) Please list inhibition recorded for the compound "O=C(CN1CCC[C@H]1C(=O)O)c1ccc2[nH]c3c4c(c5c(c3c2c1)C(=O)NC5=O)CCC4"
A) 14

Q) Please list inhibition recorded for the compound "O=C(CCC(=O)N1CCNCC1)c1ccc2[nH]c3c4c(c5c(c3c2c1)C(=O)NC5=O)CCC4"
A) 10

Q) Please list inhibition recorded for the compound "CC(C)(C)OC(=O)NCCNC(=O)CCC(=O)c1ccc2[nH]c3c4c(c5c(c3c2c1)C(=O)NC5=O)CCC4"
A) 26

Q) Please list inhibition recorded for the compound "CC(C)(C)OC(=O)N1CCN(C(=O)CCC(=O)c2ccc3[nH]c4c5c(c6c(c4c3c2)C(=O)NC6=O)CCC5)CC1"
A) 19

Q) Please list inhibition recorded for the compound "CCN(CC)C(=O)CCC(=O)c1ccc2[nH]c3c4c(c5c(c3c2c1)C(=O)NC5=O)CCC4"
A) 41

Q) Please list inhibition recorded for the compound "O=C(CCC(=O)N1CCCCC1)c1ccc2[nH]c3c4c(c5c(c3c2c1)C(=O)NC5=O)CCC4"
A) 55

Q) Please list inhibition recorded for the compound "CC(C)(C)OC(=O)[C@@H]1CCCN1CC(=O)c1ccc2[nH]c3c4c(c5c(c3c2c1)C(=O)NC5=O)CCC4"
A) 24

Q) Please list inhibition recorded for the compound "O=C(CCC(=O)N1CCCC1)c1ccc2[nH]c3c4c(c5c(c3c2c1)C(=O)NC5=O)CCC4"
A) 32

Q) Please list inhibition recorded for the compound "NC(=O)[C@@H]1CCCN1C(=O)CCC(=O)c1ccc2[nH]c3c4c(c5c(c3c2c1)C(=O)NC5=O)CCC4"
A) 11

Q) Please list inhibition recorded for the compound "CN1CCN(CC(=O)c2ccc3[nH]c4c5c(c6c(c4c3c2)C(=O)NC6=O)CCC5)CC1"
A) 7

Q) Please list inhibition recorded for the compound "NCCNC(=O)CCC(=O)c1ccc2[nH]c3c4c(c5c(c3c2c1)C(=O)NC5=O)CCC4"
A) 14

Q) Please list inhibition recorded for the compound "O=C(CCC(=O)c1ccc2[nH]c3c4c(c5c(c3c2c1)C(=O)NC5=O)CCC4)NCCO"
A) 24

* * *

study_target: Poly [ADP-ribose] polymerase 1 (Rattus norvegicus)
measurement_protocol: Inhibition of PARP1 in rat PC12 cells assessed as NAD+ recovery at 30 uM pre-treated for 1 hr before hydrogen peroxide addition followed by washout and compound treated again for 1 hr relative to 5H-phenanthridin-6-one
Format: cell-based
study_conditions: PC-12
Can you tell me inhibition for the items I'm about to list?
Your answer is read as %, so omit the unit and give the number.

Q) Please list inhibition recorded for the compound "CCN(CC)C(=O)CCC(=O)c1ccc2[nH]c3c4c(c5c(c3c2c1)C(=O)NC5=O)CCC4"
A) 78

Q) Please list inhibition recorded for the compound "CN(CC(=O)OC(C)(C)C)CC(=O)c1ccc2[nH]c3c4c(c5c(c3c2c1)C(=O)NC5=O)CCC4"
A) 73

Q) Please list inhibition recorded for the compound "CC(C)(C)OC(=O)[C@@H]1CCCN1CC(=O)c1ccc2[nH]c3c4c(c5c(c3c2c1)C(=O)NC5=O)CCC4"
A) 88

Q) Please list inhibition recorded for the compound "O=C(CCC(=O)N1CCCCC1)c1ccc2[nH]c3c4c(c5c(c3c2c1)C(=O)NC5=O)CCC4"
A) 59

Q) Please list inhibition recorded for the compound "O=C1NC(=O)c2c1c1c(c3[nH]c4ccccc4c23)CCC1"
A) 42

Q) Please list inhibition recorded for the compound "O=C(Cn1cncn1)c1ccc2[nH]c3c4c(c5c(c3c2c1)C(=O)NC5=O)CCC4"
A) 55

Q) Please list inhibition recorded for the compound "O=C(CN1CCCCC1)c1ccc2[nH]c3c4c(c5c(c3c2c1)C(=O)NC5=O)CCC4"
A) 50

Q) Please list inhibition recorded for the compound "O=C(O)CCC(=O)c1ccc2[nH]c3c4c(c5c(c3c2c1)C(=O)NC5=O)CCC4"
A) 42
